assayed-system: COX-2 (Homo sapiens)
Construct: To induce COX-2, lipopolysaccharide (LPS) from E. coli; endogenous in cells; host or cells: heparinised human whole blood from donors, with COX-2 induced by E. coli LPS
Sequence (P35354 18-604): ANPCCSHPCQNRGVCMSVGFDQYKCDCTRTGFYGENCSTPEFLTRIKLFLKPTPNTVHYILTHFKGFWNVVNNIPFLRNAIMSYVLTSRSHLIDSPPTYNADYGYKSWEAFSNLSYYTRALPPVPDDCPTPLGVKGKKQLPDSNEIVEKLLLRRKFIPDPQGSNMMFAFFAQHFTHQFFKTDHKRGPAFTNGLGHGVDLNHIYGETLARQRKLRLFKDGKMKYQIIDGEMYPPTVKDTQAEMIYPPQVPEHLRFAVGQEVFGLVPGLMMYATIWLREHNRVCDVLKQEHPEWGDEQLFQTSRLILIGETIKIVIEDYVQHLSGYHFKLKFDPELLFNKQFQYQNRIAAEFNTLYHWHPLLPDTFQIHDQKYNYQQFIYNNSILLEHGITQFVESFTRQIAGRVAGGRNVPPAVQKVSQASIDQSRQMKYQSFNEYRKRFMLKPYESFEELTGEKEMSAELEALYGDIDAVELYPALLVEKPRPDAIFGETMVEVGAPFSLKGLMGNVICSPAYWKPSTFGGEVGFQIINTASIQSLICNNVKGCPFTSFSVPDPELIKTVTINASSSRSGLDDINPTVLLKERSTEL
method-summary: Human COX-2 enzyme activity in human whole blood (LPS-induced, thromboxane B2 EIA)
Type: cell-based
assay-conditions: 1 μM; human whole blood; LPS induction; read-out: COX-2 Inhibition (% at 1 μM)
Assign class by inhibition at 1 µM: not lower than 20% means y; lower than 20% means n.

Some entries whose results are on file:
CS(=O)(=O)c1ccc(-c2cc(COCCCO[N+](=O)[O-])nn2-c2ccccc2)cc1 [Example 5e]	y
CS(=O)(=O)c1ccc(-c2cc(C(=O)CCCO)nn2-c2ccc(Cl)cc2)cc1 [Example 44d]	y
Cc1ccc(-n2nc(COCCCO[N+](=O)[O-])cc2-c2ccc(S(C)(=O)=O)cc2)cc1 [Example 8e]	y
CS(=O)(=O)c1ccc(-c2cc(COc3cccc(CO[N+](=O)[O-])c3)nn2C2CCCCC2)cc1 [Example 17d]	n
CS(=O)(=O)c1ccc(-c2[nH]nc(C(=O)CCCO[N+](=O)[O-])c2-c2ccc(C#N)cc2)cc1 [Example 42e]	n
CS(=O)(=O)c1ccc(-c2cc(COCCCO)nn2-c2ccc(C(F)(F)F)cc2)cc1 [Example 9d]	y

Task item: Tell me whether inhibition at 1 µM is at least 20% here: CS(=O)(=O)c1ccc(-c2cc(COCCCO)nn2-c2ccc(F)cc2)cc1 [Example 18d]
Reply: y
